Test: In vivo DDI: gilteritinib pharmacokinetics
Set-up: species or system mouse
Conditions: female, NSG (NOD/SCID gamma), mouse, plasma, po, 30 mg/kg, NSG female; gilteritinib 30 mg/kg oral; perpetrator TL-895 3 mg/kg

{"compound": "CCc1nc(C(N)=O)c(Nc2ccc(N3CCC(N4CCN(C)CC4)CC3)c(OC)c2)nc1NC1CCOCC1 [Gilteritinib, gilteritinib]", "Cmax (ng/mL)": 507}

====

Test: In vivo DDI: gilteritinib pharmacokinetics
Parameters: species or system mouse
Settings: female, C57BL/6, mouse, plasma, po, 30 mg/kg, C57BL/6 female; gilteritinib 30 mg/kg oral; perpetrator vehicle

{"smiles code": "CCc1nc(C(N)=O)c(Nc2ccc(N3CCC(N4CCN(C)CC4)CC3)c(OC)c2)nc1NC1CCOCC1", "result units": "ng·h/mL", "AUC": 6980}
